assayMethodText: Inhibition of Escherichia coli UPPS-mediated undecaprenyl pyrophosphate synthesis by continuous spectrophotometric assay
pIC50: −log10 of the molar value.
Output Criterion met for pIC50 not less than 6; output Criterion not met otherwise.

> print(dat)
                                     smiles    classassignment
1  O=P(O)(O)C(O)(Cc1cccc(-c2cccc3c2oc2ccccc23)c1)P(=O)(O)O      Criterion met
2    CCCCCCCCOc1ccc(C(=O)/C=C(\O)C(=O)O)cc1      Criterion met
3  CCCCCCCCCCOc1cccc(Cn2ccc(O)c(C(=O)O)c2=O)c1  Criterion not met
4  CCCCCCCCCCOc1cccc(C(=O)/C=C(\O)C(=O)O)c1  Criterion not met
5  CCCCCCOc1cccc(CCCNC(=O)/C=C(\O)C(=O)O)c1      Criterion met
6  O=C(/C=C(\O)C(=O)O)NCCCc1cccc(Oc2ccccc2)c1  Criterion not met
7  O=C(/C=C(\O)C(=O)O)NCCCc1cccc(-c2ccccc2)c1      Criterion met
8   CCCCCCOc1cccc(Cn2ccc(O)c(C(=O)O)c2=O)c1  Criterion not met

---

assayTarget: 4,4'-diapophytoene synthase (Staphylococcus aureus)
Sequence (A9JQL9 whole entry): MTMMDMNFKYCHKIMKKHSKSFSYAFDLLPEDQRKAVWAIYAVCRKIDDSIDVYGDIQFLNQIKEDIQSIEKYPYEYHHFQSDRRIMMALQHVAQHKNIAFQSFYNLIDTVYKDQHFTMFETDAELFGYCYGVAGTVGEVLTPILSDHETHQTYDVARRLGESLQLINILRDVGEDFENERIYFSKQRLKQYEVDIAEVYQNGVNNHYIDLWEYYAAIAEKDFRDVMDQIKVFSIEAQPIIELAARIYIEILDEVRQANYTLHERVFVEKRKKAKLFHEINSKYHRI
Reported values of Ki for individual entries
reportedProperty: Ki

> print(dat)
                                     smiles                               assaytarget  reportedproperty  result
1   CCCCCCOc1cccc(Cn2ccc(O)c(C(=O)O)c2=O)c1  4,4'-diapophytoene synthase (Staphylococcus aureus)                Ki  450 nM
2  O=C(/C=C(\O)C(=O)O)NCCCc1cccc(Oc2ccccc2)c1  4,4'-diapophytoene synthase (Staphylococcus aureus)                Ki  250 nM

---

Reported values of pIC50 for individual entries
assayTarget: 4,4'-diapophytoene synthase (Staphylococcus aureus)
assayMethodText: Inhibition of Staphylococcus aureus His6-tagged CrtM expressed in Escherichia coli BL21(DE3) using Farnesyl pyrophosphate as substrate incubated for 30 mins prior to substrate addition by continuous spectrophotometric assay
pIC50: −log10 of the molar value.
reportedProperty: pIC50

> print(dat)
                                     smiles  valuecomparator  quantitativeresult
1   CCCCCCOc1cccc(Cn2ccc(O)c(C(=O)O)c2=O)c1                =                4.34
2  O=C(/C=C(\O)C(=O)O)NCCCc1cccc(-c2ccccc2)c1                =                4.62
3    CCCCCCCCOc1ccc(C(=O)/C=C(\O)C(=O)O)cc1                <                3.52
4  CCCCCCCCCCOc1cccc(Cn2ccc(O)c(C(=O)O)c2=O)c1                <                3.52
5  CCCCCCCCCCOc1cccc(C(=O)/C=C(\O)C(=O)O)c1                =                4.17
6  CCCCCCOc1cccc(CCCNC(=O)/C=C(\O)C(=O)O)c1                <                3.52
7  O=C(/C=C(\O)C(=O)O)NCCCc1cccc(Oc2ccccc2)c1                =                4.62
